Tested on: M14 melanoma
method_notes: NCI-60 one-dose screen, 48 h (100 = growth as untreated, 0 = no growth, -100 = all killed)
assay_conditions: 10 µM unless noted
This is part of a sample that, as a whole, favours compounds with a hit. Of some 83,000 tested, about 20% had one in any assay.
Values of growth greater than or equal to 90% map to t; values below map to f.

CCN1C(=O)/C(=c2\sc3n(c2=O)C2C(NN=3)N(CC)C(=O)N2CC)c2ccccc21 (stereo not given); f

Prompt: Dear colleague, could you confirm whether `COc1ccc(N2CCN(S(=O)(=O)c3oc(-c4ccccc4)nc3C#N)CC2)cc1` has growth at or above 90%?
Completion: f

Prompt: What would you report for `Clc1ccc(Nc2nc(Nc3ccc(Cl)cc3)nc(Nc3ccc(-c4cc(-c5cccc(Cl)c5)on4)cc3)n2)cc1` ?
Completion: t

Prompt: Also need `Cc1ccc(C(=O)Nc2nc3c(s2)CN(Cc2ccccc2)CC3)cn1` , thanks.
Completion: f

Prompt: Ok, now `CCOC(=O)C(=CCC(C)C)C(=O)OCC`
Completion: t

Data origin: PubChem BioAssay (NCI)
